system: Staphylococcus aureus; assay: Antibacterial activity against methicillin-resistant Staphylococcus aureus ATCC 43300 by CLSI method; format: functional, organism-based

- COMPOUND: "COc1cc(NC(C)CCCNC(=O)N[C@H](CCCCN)C(=O)NCCCC(C)Nc2cc(OC)cc3cccnc23)c2ncccc2c1.Cl (stereo not given in full)"
  ASSAY TARGET: "Staphylococcus aureus"
  MIC [µg/mL]: 20
- COMPOUND: "COc1cc(NC(C)CCCNC(=O)CC[C@H](N)C(=O)NCCCC(C)Nc2cc(OC)cc3ccc(C(C)(C)C)nc23)c2nc(C(C)(C)C)ccc2c1.Cl (stereo not given in full)"
  ASSAY TARGET: "Staphylococcus aureus"
  MIC [µg/mL]: 20
- COMPOUND: "COc1cc(NC(C)CCCNC(=O)N[C@@H](CCCN)C(=O)NCCCC(C)Nc2cc(OC)cc3ccc(C(C)(C)C)nc23)c2nc(C(C)(C)C)ccc2c1.Cl (stereo not given in full)"
  ASSAY TARGET: "Staphylococcus aureus"
  MIC [µg/mL]: 20
- COMPOUND: "CCCCCOc1c(OC)cc(NC(C)CCCNC(=S)NCCCC(C)Nc2cc(OC)c(OCCCCC)c3c(CC)ccnc23)c2nccc(CC)c12.Cl.Cl (stereo not given)"
  ASSAY TARGET: "Staphylococcus aureus"
  MIC [µg/mL]: 5
- COMPOUND: "COc1cc(NC(C)CCCNCC(=O)NCCCC(C)Nc2cc(OC)cc3ccc(C(C)(C)C)nc23)c2nc(C(C)(C)C)ccc2c1.Cl.Cl (stereo not given)"
  ASSAY TARGET: "Staphylococcus aureus"
  MIC [µg/mL]: 20
- COMPOUND: "COc1cc(NC(C)CCCNC(=O)N[C@H](CCCN)C(=O)NCCCC(C)Nc2cc(OC)cc3ccc(C(C)(C)C)nc23)c2nc(C(C)(C)C)ccc2c1.Cl (stereo not given in full)"
  ASSAY TARGET: "Staphylococcus aureus"
  MIC [µg/mL]: 5
- COMPOUND: "COc1cc(NC(C)CCCNC(=O)NC(CCCCN)C(=O)NCCCC(C)Nc2cc(OC)cc3ccc(C(C)(C)C)nc23)c2nc(C(C)(C)C)ccc2c1.Cl (single isomer, unassigned)"
  ASSAY TARGET: "Staphylococcus aureus"
  MIC [µg/mL]: 5
- COMPOUND: "CCCCCOc1c(OC)cc(NC(C)CCCNC(=O)NCCCC(C)Nc2cc(OC)c(OCCCCC)c3c(CC)ccnc23)c2nccc(CC)c12.Cl.Cl (stereo not given)"
  ASSAY TARGET: "Staphylococcus aureus"
  MIC [µg/mL]: 20
- COMPOUND: "COc1cc(NC(C)CCCNC(=O)NC(CCCN)C(=O)NCCCC(C)Nc2cc(OC)cc3cccnc23)c2ncccc2c1.Cl (single isomer, unassigned; 40)"
  ASSAY TARGET: "Staphylococcus aureus"
  MIC [µg/mL]: 20
- COMPOUND: "COc1cc(NC(C)CCCNC(=O)C[C@H](N)C(=O)NCCCC(C)Nc2cc(OC)cc3cccnc23)c2ncccc2c1.Cl (stereo not given in full)"
  ASSAY TARGET: "Staphylococcus aureus"
  MIC [µg/mL]: 20
- COMPOUND: "COc1cc(NC(C)CCCNC(=S)NCCCC(C)Nc2cc(OC)cc3cccnc23)c2ncccc2c1.Cl.Cl (stereo not given)"
  ASSAY TARGET: "Staphylococcus aureus"
  MIC [µg/mL]: 5
- COMPOUND: "COc1cc(NC(C)CCCNC(=O)N[C@@H](CCCCN)C(=O)NCCCC(C)Nc2cc(OC)cc3ccc(C(C)(C)C)nc23)c2nc(C(C)(C)C)ccc2c1.Cl (stereo not given in full)"
  ASSAY TARGET: "Staphylococcus aureus"
  MIC [µg/mL]: 20
- COMPOUND: "COc1cc(NC(C)CCCNC(=O)c2ccncc2C(=O)NCCCC(C)Nc2cc(OC)cc3ccc(C(C)(C)C)nc23)c2nc(C(C)(C)C)ccc2c1.Cl (stereo not given)"
  ASSAY TARGET: "Staphylococcus aureus"
  MIC [µg/mL]: 20
- COMPOUND: "COc1cc(NC(C)CCCNC(=O)NC(CCCNC(=N)N)C(=O)NCCCC(C)Nc2cc(OC)cc3cccnc23)c2ncccc2c1.Cl (single isomer, unassigned; 36)"
  ASSAY TARGET: "Staphylococcus aureus"
  MIC [µg/mL]: 20
- COMPOUND: "COc1cc(NC(C)CCCNC(=O)CC[C@H](N)C(=O)NCCCC(C)Nc2cc(OC)cc3cccnc23)c2ncccc2c1.Cl (stereo not given in full)"
  ASSAY TARGET: "Staphylococcus aureus"
  MIC [µg/mL]: 20

###

This section presents molecules with their documented Methemoglobin formation values.
experiment: Hematotoxicity against RBC assessed as formation of methemoglobin at 20 ug/ml relative to control; type: cell-based; conditions: erythrocyte
ENDPOINT NAME: Methemoglobin formation (%)

- MOLECULE: "COc1cc(NC(C)CCCNCCNCCNCCCC(C)Nc2cc(OC)cc3cccnc23)c2ncccc2c1.Cl.Cl (centres undefined)"
  RESULT UNIT: "%"
  MEAS VALUE: 8.4
- MOLECULE: "COc1cc(NC(C)CCCNCOC(=O)NCCCC(C)Nc2cc(OC)cc3cccnc23)c2ncccc2c1.Cl.Cl (centres undefined)"
  RESULT UNIT: "%"
  MEAS VALUE: 5.3
- MOLECULE: "COc1cc(NC(C)CCCNC(=O)NCCCC(C)Nc2cc(OC)cc3ccc(C(C)(C)C)nc23)c2nc(C(C)(C)C)ccc2c1.Cl.Cl (centres undefined)"
  RESULT UNIT: "%"
  MEAS VALUE: 1
- MOLECULE: "COc1cc(NC(C)CCCNC(=O)N[C@H](CCCCN)C(=O)NCCCC(C)Nc2cc(OC)cc3cccnc23)c2ncccc2c1.Cl (some centres undefined)"
  RESULT UNIT: "%"
  MEAS VALUE: 2.8

###

system: Candida albicans; assay: Antifungal activity against Candida albicans ATCC 90028 at 20 ug/ml; assay type: functional, organism-based
Active and inactive are the calls of the source. The rule behind the calls is not given here.

- COMPOUND: "COc1cc(NC(C)CCCNC(=O)NC(CCCN)C(=O)NCCCC(C)Nc2cc(OC)cc3cccnc23)c2ncccc2c1 (single isomer, unassigned; 37)"
  MIC: "inactive"
- COMPOUND: "COc1cc(NC(C)CCCNC(=O)NC(CCCN)C(=O)NCCCC(C)Nc2cc(OC)cc3cccnc23)c2ncccc2c1 (single isomer, unassigned; 40)"
  MIC: "inactive"
- COMPOUND: "COc1cc(NC(C)CCCNC(=O)N[C@H](CCCCN)C(=O)NCCCC(C)Nc2cc(OC)cc3cccnc23)c2ncccc2c1.Cl (stereo partly drawn)"
  MIC: "inactive"
- COMPOUND: "COc1cc(NC(C)CCCNC(=O)N[C@H](CCCN)C(=O)NCCCC(C)Nc2cc(OC)cc3ccc(C(C)(C)C)nc23)c2nc(C(C)(C)C)ccc2c1.Cl (stereo partly drawn)"
  MIC: "inactive"
- COMPOUND: "COc1cc(NC(C)CCCNC(=O)C[C@H](N)C(=O)NCCCC(C)Nc2cc(OC)cc3ccc(C(C)(C)C)nc23)c2nc(C(C)(C)C)ccc2c1.Cl (stereo partly drawn)"
  MIC: "inactive"
- COMPOUND: "COc1cc(NC(C)CCCNC(=O)NC(CCCNC(=N)N)C(=O)NCCCC(C)Nc2cc(OC)cc3cccnc23)c2ncccc2c1 (single isomer, unassigned; 36)"
  MIC: "inactive"
- COMPOUND: "COc1cc(NC(C)CCCNC(=O)NC(CCCNC(=N)N)C(=O)NCCCC(C)Nc2cc(OC)cc3cccnc23)c2ncccc2c1 (single isomer, unassigned; 39)"
  MIC: "inactive"
- COMPOUND: "COc1cc(NC(C)CCCNCCNCCNCCCC(C)Nc2cc(OC)cc3cccnc23)c2ncccc2c1.Cl.Cl (stereo not drawn)"
  MIC: "inactive"

###

assay: Hematotoxicity against RBC assessed as formation of methemoglobin at 20 ug/ml relative to control; assay type: cell-based; details: erythrocyte
This section presents compounds with their documented Methemoglobin formation values.

- COMPOUND: "COc1cc(NC(C)CCCNC(=O)NC(=O)NCCCC(C)Nc2cc(OC)cc3ccc(C(C)(C)C)nc23)c2nc(C(C)(C)C)ccc2c1.Cl.Cl (stereo not given)"
  Methemoglobin formation (%): 8.8
- COMPOUND: "COc1cc(NC(C)CCCNC(=O)NC(CCCNC(=N)N)C(=O)NCCCC(C)Nc2cc(OC)cc3cccnc23)c2ncccc2c1.Cl (single isomer, unassigned; 36)"
  Methemoglobin formation (%): 3.1
- COMPOUND: "COc1cc(NC(C)CCCNC(=O)N[C@H](CCCN)C(=O)NCCCC(C)Nc2cc(OC)cc3ccc(C(C)(C)C)nc23)c2nc(C(C)(C)C)ccc2c1.Cl (stereo not given in full)"
  Methemoglobin formation (%): 2.3
- COMPOUND: "COc1cc(NC(C)CCCNCC(=O)NCCCC(C)Nc2cc(OC)cc3cccnc23)c2ncccc2c1.Cl.Cl (stereo not given)"
  Methemoglobin formation (%): 20.3
- COMPOUND: "COc1cc(NC(C)CCCNC(=S)NCCCC(C)Nc2cc(OC)cc3ccc(C(C)(C)C)nc23)c2nc(C(C)(C)C)ccc2c1.Cl.Cl (stereo not given)"
  Methemoglobin formation (%): 0.75
